Experiment: Cell growth / viability of MT-4 cells (cytotoxicity)
Format: cell-based
Conditions: human, day 5, read-out: CC0 (concentration that reduces viability of MT-4 cells; minimum cytotoxic concentration)
I'd be grateful if you could share measured MCC at 120 h for these entries.
Give bare numbers, in µg/mL.

CC1=C[C@H]2[C@@]3(O)[C@H](C)[C@@H](OC(=O)c4ccccc4)[C@]4(OC(=O)c5ccccc5)[C@H]([C@@H]3C=C(COC(=O)c3ccccc3)C[C@]2(O)C1=O)C4(C)C [Compound 12, Phorbol-12,13,20-tribenzoate] :: 31.3

In the following, a different compound is considered.
Lookup: Let me know recorded MCC at 120 h for CC(=O)OCC1=C[C@H]2[C@@H]3C(C)(C)[C@]3(OC(C)=O)[C@H](OC(C)=O)[C@@H](C)[C@]2(OC(C)=O)[C@@H]2C=C(C)C(=O)[C@@]2(OC(C)=O)C1 [Compound 17, Phorbol-4,9,12,13,20-pentaacetate] , thanks.
Found: 250

* * *

Tested on: protein kinase C (PKC)
Format: biochemical, mouse
Conditions: 10 ng/mL; relative to TPA positive control
Protocol: After addition of 0.55 nM [γ-^32 P] ATP (50×10^3 cpm/nmol), the reaction mixture was mixed and allowed to be kept at 37° C. for 30 minutes. Then the reactions were terminated by the addition of 10 μl of ice-cold stop reagent. Aliquots of 35 μL were transferred to the center of peptide binding discs. After 10 minutes, the discs were washed two times with 75 mM orthophosphoric acid. The activity of ^32 P-labeled samples was counted in 10/mL of a scintillation fluid for 1 minute. […]
Assay Metric: % Activity of PKC (%)
Answers are plain numbers, in %.

Solved entries:
C=C(C)C1C(OC(C)=O)=CC(C)C2(O)C1C=C(COC(=O)CCCCCCC/C=C\C/C=C\CCCCC)CC1(O)C(=O)C(C)=CC12 (stereo not drawn) :: 24
CCCCC/C=C\C/C=C\CCCCCCCC(=O)OCC1=C[C@H]2[C@@H]3C(C)(C)[C@]3(OC(C)=O)[C@H](O)[C@@H](C)[C@]2(O)[C@@H]2C=C(C)C(=O)[C@@]2(O)C1 :: 0
CC1=C[C@@H]2[C@@H](CC(CO)=C[C@H]3[C@@H]4C(C)(C)[C@]4(O)[C@H](O)[C@@H](C)[C@]23O)C1=O :: 0

Please look at the items below and tell me % Activity of PKC for each one, in order.
1. CC(=O)OCC1=C[C@H]2[C@@H]3C(C)(C)[C@]3(OC(C)=O)[C@H](OC(C)=O)[C@@H](C)[C@]2(O)[C@@H]2C=C(C)C(=O)[C@@]2(O)C1 [Compound 11, Phorbol-12,13,20-triacetate]
2. C/C=C(\C)C(=O)O[C@@]12[C@H](OC(C)=O)[C@@H](C)[C@@]3(O)[C@@H](C=C(CO)C[C@]4(O)C(=O)C(C)=C[C@@H]34)[C@@H]1C2(C)C [Compound 3, 12-O-Acetylphorbol-13-tigliate]

Found:
1. 0
2. 16

* * *

I'd be grateful if you could share measured % Activity of PKC for these entries.
Test system: protein kinase C (PKC)
Assay type: biochemical, mouse
Details: 10 ng/mL; relative to TPA positive control
Write down the value, and be sure its unit follows.

CCCCCCCCCCCC(=O)O[C@@]12[C@H](OC(=O)C(C)CC)[C@@H](C)[C@@]3(O)[C@@H](C=C(CO)C[C@]4(O)C(=O)C(C)=C[C@@H]34)[C@@H]1C2(C)C (some centres unmarked) [Compound 7] :: 16%

In the following, a different compound is considered.
Lookup: Let me know recorded % Activity of PKC for CC(=O)OCC1=C[C@H]2[C@@H]3C(C)(C)[C@]3(OC(C)=O)[C@H](OC(C)=O)[C@@H](C)[C@]2(OC(C)=O)[C@@H]2C=C(C)C(=O)[C@@]2(OC(C)=O)C1 [Compound 17, Phorbol-4,9,12,13,20-pentaacetate] , thanks.
Found: 0%
